B1: scFv; the commonest letter at each place (parent)
chain 1: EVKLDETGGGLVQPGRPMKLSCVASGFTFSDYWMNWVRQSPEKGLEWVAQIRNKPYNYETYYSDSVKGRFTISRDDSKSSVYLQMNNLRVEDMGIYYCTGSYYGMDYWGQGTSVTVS
chain 2: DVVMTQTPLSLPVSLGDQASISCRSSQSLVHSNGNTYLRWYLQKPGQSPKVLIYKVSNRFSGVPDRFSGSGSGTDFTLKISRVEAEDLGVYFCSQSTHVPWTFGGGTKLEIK

# Variants of: B1
# TEST_PROTOCOL: Kd (Tite-Seq)
# MEASUREMENT_CONDITIONS: with fluorescein; format: scFv 4-4-20, heavy + light
VALUE_TYPE: Kd (nM)
Your answer is read as nM, so omit the unit and give the number.

Past entries and their recorded results:
INSERT INTO measurements (variant, endpoint_unit, recorded_number) VALUES
  ('chain 1 F29Y', 'nM', 0.783),
  ('chain 1 T28F D31A', 'nM', 50.7),
  ('chain 1 Y102A D106S', 'nM', 3.8),
  ('chain 1 T28K F29C', 'nM', 37.2),
  ('chain 1 M34N N35H', 'nM', 15.4);

Kindly review the next variant as well.
Task: Answer with reported Kd of chain 1 Y103C M105L
Result: 20

Where do the numbers come from? From the FLAb antibody collection (doi:10.7554/elife.23156).
